- Tested on: Escherichia coli TOP10
- assayExplanation: shrunken log2 fold change of peptide-encoding DNA abundance (4.5 h post-induction vs induction); higher = less antimicrobial activity (less host growth inhibition)
- measurementSetup: time post-induction: 4.5 h; library: site-saturation at positions 5, 18, 19, 20
So basically, the class depends on measured shrunken log2 fold change, and the ranges are low: < -0.1; middle: ≥ -0.1 and < 0.04; high: ≥ 0.04

Worked examples, 3 sequences total:
RRIRERPPRLPRPRPRPICYPRP    low
RRIRERPPRLPRPRPRPPHLPRP    middle
RRIRDRPPRLPRPRPRPPDYPRP    middle

Place this sequence in its band: RRIRRRPPRLPRPRPRPIPIPRP middle

Place this sequence in its band: RRIRQRPPRLPRPRPRPCNHPRP middle

Place this sequence in its band: RRIRHRPPRLPRPRPRPAPFPRP low

Place this sequence in its band: RRIRPRPPRLPRPRPRPAANPRP high

Place this sequence in its band: RRIRIRPPRLPRPRPRPFKYPRP middle

Place this sequence in its band: RRIRVRPPRLPRPRPRPWGHPRP middle

Place this sequence in its band: RRIRKRPPRLPRPRPRPTGHPRP high

Place this sequence in its band: RRIRCRPPRLPRPRPRPRWSPRP high

Place this sequence in its band: RRIRIRPPRLPRPRPRPESIPRP low

====

- Test system: Escherichia coli TOP10
- assayExplanation: shrunken log2 fold change of peptide-encoding DNA abundance (4.5 h post-induction vs induction); higher = less antimicrobial activity (less host growth inhibition)
- measurementSetup: time post-induction: 4.5 h; library: site-saturation at positions 5, 18, 19, 20
observable: shrunken log2 fold change
One number for each entry.

RRIRPRPPRLPRPRPRPDYMPRP    -0.334
RRIRRRPPRLPRPRPRPFLCPRP    0.219
RRIRFRPPRLPRPRPRPPIMPRP    -0.451
RRIRIRPPRLPRPRPRPQPQPRP    0.0386

# per-item lookup of shrunken log2 fold change; items listed below
1. RRIRWRPPRLPRPRPRPMVMPRP
2. RRIRARPPRLPRPRPRPAAVPRP
3. RRIRVRPPRLPRPRPRPQDEPRP
4. RRIRMRPPRLPRPRPRPGEMPRP

1: -0.0614; 2: 0.8; 3: -0.114; 4: 0.0709

====

- Tested on: Escherichia coli TOP10;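 also: peptides expressed intracellularly from a pBAD plasmid library in pooled LB shake-flask culture, induced with 0.3% L-arabinose, DNA abundance read by NGS, three biological replicates, DESeq2 with apeglm shrinkage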
- assayExplanation: shrunken log2 fold change of peptide-encoding DNA abundance (4.5 h post-induction vs induction); higher = less antimicrobial activity (less host growth inhibition)
- measurementSetup: time post-induction: 4.5 h; library: site-saturation at positions 5, 18, 19, 20
Decide by shrunken log2 fold change: equal to or exceeding -0.03 means Yes, less means No.

Worked examples, 6 sequences total:
RRIRWRPPRLPRPRPRPAYSPRP    No
RRIRERPPRLPRPRPRPDWNPRP    No
RRIRDRPPRLPRPRPRPPTCPRP    Yes
RRIRFRPPRLPRPRPRPKIWPRP    Yes
RRIRCRPPRLPRPRPRPHGMPRP    No
RRIRKRPPRLPRPRPRPHWCPRP    Yes

Reported shrunken log2 fold change at or above -0.03? RRIRIRPPRLPRPRPRPHRMPRP No

Reported shrunken log2 fold change at or above -0.03? RRIRSRPPRLPRPRPRPQQGPRP Yes
